Can you tell me % activity for the items I'm about to list?
target: PKCθ (h) (Homo sapiens, UniProt Q04759); test: Kinase Profiling Assay; assay type: biochemical; details: 100 μM
Sequence (Q04759 whole entry): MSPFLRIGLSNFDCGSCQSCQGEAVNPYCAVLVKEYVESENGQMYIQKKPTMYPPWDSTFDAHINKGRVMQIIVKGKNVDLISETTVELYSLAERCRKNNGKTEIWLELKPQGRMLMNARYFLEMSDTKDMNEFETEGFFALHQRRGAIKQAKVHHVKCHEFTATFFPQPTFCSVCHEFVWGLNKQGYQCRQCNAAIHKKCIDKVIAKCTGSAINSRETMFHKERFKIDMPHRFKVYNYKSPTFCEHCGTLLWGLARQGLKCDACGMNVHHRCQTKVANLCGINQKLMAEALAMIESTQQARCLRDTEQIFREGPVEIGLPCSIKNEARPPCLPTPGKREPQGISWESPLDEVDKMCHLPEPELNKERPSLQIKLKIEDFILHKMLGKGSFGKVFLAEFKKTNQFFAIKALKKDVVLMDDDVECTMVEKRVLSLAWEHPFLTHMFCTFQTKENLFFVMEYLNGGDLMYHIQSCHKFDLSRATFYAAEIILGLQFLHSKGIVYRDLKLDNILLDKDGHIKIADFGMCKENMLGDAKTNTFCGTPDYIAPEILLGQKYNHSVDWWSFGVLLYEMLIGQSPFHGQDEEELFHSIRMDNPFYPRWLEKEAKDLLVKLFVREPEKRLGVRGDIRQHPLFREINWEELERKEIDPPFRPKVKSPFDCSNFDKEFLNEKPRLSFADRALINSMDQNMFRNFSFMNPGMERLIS
Give a bare numeral; the unit % is implied.

Req: Please report the recorded % activity for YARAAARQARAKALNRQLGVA (Mammalian) [MMI-0200] .
Resp: 101

Req: Please report the recorded % activity for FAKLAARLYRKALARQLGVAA [MMI-0300] .
Resp: 88

Req: Please report the recorded % activity for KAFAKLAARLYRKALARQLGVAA [MMI-0400] .
Resp: 76

Req: Please report the recorded % activity for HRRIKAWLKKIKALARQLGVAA (Mammalian) [MMI-0500] .
Resp: 62

---

target: Pim-1 (h) (Homo sapiens, UniProt P11309); construct: purchased Millipore; assay: Kinase Profiling Assay; format: biochemical; conditions: 100 μM
Sequence (P11309 whole entry): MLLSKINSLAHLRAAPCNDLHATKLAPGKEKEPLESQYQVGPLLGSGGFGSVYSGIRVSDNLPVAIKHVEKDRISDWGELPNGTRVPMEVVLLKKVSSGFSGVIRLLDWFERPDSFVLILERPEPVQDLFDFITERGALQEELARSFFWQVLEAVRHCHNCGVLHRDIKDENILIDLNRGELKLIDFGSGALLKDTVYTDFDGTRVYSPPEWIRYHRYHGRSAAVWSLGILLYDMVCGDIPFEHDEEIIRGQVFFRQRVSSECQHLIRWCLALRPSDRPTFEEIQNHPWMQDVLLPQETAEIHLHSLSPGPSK
readout_type: % activity (%)
Give a bare numeral; the unit % is implied.

Req: Quick check: % activity on Pim-1 (h) (Homo sapiens, UniProt P11309), item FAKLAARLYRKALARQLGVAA [MMI-0300] ?
Resp: 8

Req: Quick check: % activity on Pim-1 (h) (Homo sapiens, UniProt P11309), item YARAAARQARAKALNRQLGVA (Mammalian) [MMI-0200] ?
Resp: 18

Req: Quick check: % activity on Pim-1 (h) (Homo sapiens, UniProt P11309), item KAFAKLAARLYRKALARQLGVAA [MMI-0400] ?
Resp: 7

Req: Quick check: % activity on Pim-1 (h) (Homo sapiens, UniProt P11309), item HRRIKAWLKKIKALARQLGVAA (Mammalian) [MMI-0500] ?
Resp: 0

---

Target: Rse (h) (Homo sapiens)
Sequence (Q06418 41-890): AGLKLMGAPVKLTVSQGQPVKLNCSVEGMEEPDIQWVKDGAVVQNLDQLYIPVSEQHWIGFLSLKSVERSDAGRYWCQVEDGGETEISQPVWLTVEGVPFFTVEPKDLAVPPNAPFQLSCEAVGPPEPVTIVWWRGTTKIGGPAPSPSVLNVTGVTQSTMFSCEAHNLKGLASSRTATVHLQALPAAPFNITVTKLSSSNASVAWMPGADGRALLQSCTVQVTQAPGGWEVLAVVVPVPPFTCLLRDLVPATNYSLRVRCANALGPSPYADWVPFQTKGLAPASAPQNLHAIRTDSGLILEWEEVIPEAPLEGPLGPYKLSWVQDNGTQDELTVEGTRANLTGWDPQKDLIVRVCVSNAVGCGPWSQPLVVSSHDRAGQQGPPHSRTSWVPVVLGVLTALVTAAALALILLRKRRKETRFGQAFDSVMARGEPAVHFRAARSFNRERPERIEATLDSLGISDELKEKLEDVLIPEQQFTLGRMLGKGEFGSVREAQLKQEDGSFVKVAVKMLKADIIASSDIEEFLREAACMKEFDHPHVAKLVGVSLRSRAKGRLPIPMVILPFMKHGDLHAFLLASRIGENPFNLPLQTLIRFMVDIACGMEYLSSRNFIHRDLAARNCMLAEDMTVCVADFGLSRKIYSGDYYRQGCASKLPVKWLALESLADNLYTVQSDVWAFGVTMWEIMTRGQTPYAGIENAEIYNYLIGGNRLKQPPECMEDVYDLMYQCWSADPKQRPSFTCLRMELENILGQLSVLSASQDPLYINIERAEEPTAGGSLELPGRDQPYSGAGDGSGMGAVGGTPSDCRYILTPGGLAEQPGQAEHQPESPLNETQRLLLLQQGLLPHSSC
Assay: Kinase Profiling Assay
Type: biochemical
Settings: 100 μM
readout_type: % activity (%)
Give a bare numeral; the unit % is implied.

Req: Please report the recorded % activity for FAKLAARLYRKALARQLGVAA [MMI-0300] .
Resp: 88

Req: Please report the recorded % activity for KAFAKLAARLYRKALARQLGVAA [MMI-0400] .
Resp: 89

Req: Please report the recorded % activity for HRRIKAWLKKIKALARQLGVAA (Mammalian) [MMI-0500] .
Resp: 63

Req: Please report the recorded % activity for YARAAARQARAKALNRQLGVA (Mammalian) [MMI-0200] .
Resp: 88

---

biological target: CaMKIIβ (h) (Homo sapiens); construct: purchased Millipore; assay: Kinase Profiling Assay; type: biochemical; details: 100 μM
Sequence (Q13554 whole entry): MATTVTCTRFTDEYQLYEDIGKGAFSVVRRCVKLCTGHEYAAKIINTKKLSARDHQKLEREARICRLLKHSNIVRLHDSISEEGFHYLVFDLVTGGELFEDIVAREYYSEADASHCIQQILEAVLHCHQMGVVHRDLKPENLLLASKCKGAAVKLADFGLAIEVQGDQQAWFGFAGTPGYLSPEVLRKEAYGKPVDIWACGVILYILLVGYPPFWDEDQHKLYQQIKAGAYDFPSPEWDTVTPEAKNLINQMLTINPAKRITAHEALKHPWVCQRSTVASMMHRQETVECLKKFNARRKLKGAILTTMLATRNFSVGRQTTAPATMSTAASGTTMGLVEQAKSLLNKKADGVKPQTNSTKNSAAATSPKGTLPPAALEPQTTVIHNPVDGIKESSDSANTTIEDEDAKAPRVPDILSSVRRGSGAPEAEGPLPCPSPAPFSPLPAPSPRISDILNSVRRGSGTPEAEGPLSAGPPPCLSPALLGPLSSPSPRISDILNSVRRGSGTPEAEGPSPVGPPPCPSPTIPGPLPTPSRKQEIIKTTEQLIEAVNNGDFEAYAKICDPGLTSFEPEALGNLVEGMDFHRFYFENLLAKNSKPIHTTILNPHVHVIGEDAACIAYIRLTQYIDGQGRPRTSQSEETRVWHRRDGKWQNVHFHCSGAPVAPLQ
Can you tell me % activity for the items I'm about to list?
State the result as a value with its unit after it.

Req: Please report the recorded % activity for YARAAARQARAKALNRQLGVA (Mammalian) [MMI-0200] .
Resp: 53%

Req: Please report the recorded % activity for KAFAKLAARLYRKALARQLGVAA [MMI-0400] .
Resp: 11%

Req: Please report the recorded % activity for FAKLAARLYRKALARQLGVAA [MMI-0300] .
Resp: 2%

Req: Please report the recorded % activity for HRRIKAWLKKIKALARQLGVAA (Mammalian) [MMI-0500] .
Resp: 3%

---

Molecular target: IRAK4 (h) (Homo sapiens, UniProt Q9NWZ3)
Construct: purchased Millipore
Sequence (Q9NWZ3 1-460): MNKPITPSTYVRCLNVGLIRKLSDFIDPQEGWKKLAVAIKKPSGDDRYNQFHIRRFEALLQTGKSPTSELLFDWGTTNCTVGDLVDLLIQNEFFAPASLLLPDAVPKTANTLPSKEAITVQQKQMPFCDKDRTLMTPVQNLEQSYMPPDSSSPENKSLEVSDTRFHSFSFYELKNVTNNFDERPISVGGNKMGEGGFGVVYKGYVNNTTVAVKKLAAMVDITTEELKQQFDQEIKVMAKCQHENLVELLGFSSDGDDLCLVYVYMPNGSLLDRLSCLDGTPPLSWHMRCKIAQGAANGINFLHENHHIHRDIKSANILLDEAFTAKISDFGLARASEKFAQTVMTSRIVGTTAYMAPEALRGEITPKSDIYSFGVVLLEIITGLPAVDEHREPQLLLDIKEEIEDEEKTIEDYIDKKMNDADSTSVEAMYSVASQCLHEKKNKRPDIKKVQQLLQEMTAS
Assay: Kinase Profiling Assay
Assay type: biochemical
Conditions: 100 μM
Can you tell me % activity for the items I'm about to list?
Give a bare numeral; the unit % is implied.

Req: Please report the recorded % activity for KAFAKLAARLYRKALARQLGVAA [MMI-0400] .
Resp: 59

Req: Please report the recorded % activity for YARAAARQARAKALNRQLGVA (Mammalian) [MMI-0200] .
Resp: 110

Req: Please report the recorded % activity for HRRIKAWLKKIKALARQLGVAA (Mammalian) [MMI-0500] .
Resp: 3

Req: Please report the recorded % activity for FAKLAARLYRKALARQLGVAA [MMI-0300] .
Resp: 59

---

Can you tell me % activity for the items I'm about to list?
target: ErbB4 (h) (Homo sapiens, UniProt Q15303); test: Kinase Profiling Assay; type: biochemical; details: 100 μM
Sequence (Q15303 26-1308): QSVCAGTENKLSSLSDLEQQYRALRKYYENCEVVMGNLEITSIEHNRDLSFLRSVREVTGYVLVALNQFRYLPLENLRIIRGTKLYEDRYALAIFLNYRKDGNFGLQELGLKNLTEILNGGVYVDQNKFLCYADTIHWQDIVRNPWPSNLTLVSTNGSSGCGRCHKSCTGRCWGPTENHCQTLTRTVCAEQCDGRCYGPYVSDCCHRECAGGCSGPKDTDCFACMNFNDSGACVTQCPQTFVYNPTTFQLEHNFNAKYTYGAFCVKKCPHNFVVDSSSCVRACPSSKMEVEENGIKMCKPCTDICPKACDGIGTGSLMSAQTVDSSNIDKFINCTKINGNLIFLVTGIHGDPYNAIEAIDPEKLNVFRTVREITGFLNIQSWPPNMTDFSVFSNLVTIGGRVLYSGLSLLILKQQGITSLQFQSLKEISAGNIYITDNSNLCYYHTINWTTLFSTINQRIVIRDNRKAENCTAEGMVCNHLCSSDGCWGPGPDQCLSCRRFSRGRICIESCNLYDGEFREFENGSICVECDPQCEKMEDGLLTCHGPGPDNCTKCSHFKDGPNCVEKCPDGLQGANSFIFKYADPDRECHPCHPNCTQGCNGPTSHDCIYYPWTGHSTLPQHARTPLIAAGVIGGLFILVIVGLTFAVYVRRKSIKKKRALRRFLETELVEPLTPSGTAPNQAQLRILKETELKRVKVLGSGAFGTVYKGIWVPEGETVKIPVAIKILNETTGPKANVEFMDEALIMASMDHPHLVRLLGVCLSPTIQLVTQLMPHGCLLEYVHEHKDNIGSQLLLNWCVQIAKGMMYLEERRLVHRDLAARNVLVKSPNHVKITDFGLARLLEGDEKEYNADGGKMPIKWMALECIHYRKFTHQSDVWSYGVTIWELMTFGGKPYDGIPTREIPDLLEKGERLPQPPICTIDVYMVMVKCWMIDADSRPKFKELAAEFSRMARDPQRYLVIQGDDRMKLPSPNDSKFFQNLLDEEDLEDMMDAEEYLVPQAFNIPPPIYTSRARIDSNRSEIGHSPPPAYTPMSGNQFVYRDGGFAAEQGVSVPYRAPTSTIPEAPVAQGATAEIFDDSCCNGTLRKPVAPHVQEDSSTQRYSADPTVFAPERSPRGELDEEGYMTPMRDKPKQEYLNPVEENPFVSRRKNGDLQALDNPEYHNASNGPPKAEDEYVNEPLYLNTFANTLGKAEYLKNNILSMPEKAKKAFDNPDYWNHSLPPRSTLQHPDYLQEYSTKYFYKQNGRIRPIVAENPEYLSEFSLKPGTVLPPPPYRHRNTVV
Give a bare numeral; the unit % is implied.

Req: Quick check: % activity on ErbB4 (h) (Homo sapiens, UniProt Q15303), item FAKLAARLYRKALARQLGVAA [MMI-0300] ?
Resp: 40

Req: Quick check: % activity on ErbB4 (h) (Homo sapiens, UniProt Q15303), item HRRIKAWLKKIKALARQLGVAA (Mammalian) [MMI-0500] ?
Resp: 2

Req: Quick check: % activity on ErbB4 (h) (Homo sapiens, UniProt Q15303), item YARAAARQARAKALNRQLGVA (Mammalian) [MMI-0200] ?
Resp: 82

Req: Quick check: % activity on ErbB4 (h) (Homo sapiens, UniProt Q15303), item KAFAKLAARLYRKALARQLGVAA [MMI-0400] ?
Resp: 0

---

Can you tell me % activity for the items I'm about to list?
target: CLK3 (h) (Homo sapiens, UniProt P49761); construct: purchased Millipore; experiment: Kinase Profiling Assay; type: biochemical; conditions: 100 μM
Sequence (P49761 whole entry): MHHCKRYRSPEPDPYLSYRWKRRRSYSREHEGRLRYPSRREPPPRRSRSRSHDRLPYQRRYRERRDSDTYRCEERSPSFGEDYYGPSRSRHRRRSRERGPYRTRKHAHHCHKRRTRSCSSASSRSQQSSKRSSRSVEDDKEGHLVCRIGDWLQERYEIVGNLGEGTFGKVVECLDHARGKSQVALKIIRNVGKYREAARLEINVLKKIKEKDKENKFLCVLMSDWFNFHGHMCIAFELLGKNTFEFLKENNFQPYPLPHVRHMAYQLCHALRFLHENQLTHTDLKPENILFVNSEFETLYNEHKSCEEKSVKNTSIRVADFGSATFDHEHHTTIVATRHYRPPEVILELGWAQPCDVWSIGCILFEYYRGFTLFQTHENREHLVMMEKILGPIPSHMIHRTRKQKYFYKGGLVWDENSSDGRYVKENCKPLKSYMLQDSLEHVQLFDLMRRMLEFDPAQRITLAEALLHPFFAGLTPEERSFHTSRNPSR
Give a bare numeral; the unit % is implied.

Req: Please report the recorded % activity for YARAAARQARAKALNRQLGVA (Mammalian) [MMI-0200] .
Resp: 76

Req: Please report the recorded % activity for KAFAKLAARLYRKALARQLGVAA [MMI-0400] .
Resp: 84

Req: Please report the recorded % activity for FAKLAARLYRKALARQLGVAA [MMI-0300] .
Resp: 61

Req: Please report the recorded % activity for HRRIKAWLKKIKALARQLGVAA (Mammalian) [MMI-0500] .
Resp: 76

---

molecular target: MELK (h) (Homo sapiens); experiment: Kinase Profiling Assay; assay type: biochemical; conditions: 100 μM
Sequence (Q14680 whole entry): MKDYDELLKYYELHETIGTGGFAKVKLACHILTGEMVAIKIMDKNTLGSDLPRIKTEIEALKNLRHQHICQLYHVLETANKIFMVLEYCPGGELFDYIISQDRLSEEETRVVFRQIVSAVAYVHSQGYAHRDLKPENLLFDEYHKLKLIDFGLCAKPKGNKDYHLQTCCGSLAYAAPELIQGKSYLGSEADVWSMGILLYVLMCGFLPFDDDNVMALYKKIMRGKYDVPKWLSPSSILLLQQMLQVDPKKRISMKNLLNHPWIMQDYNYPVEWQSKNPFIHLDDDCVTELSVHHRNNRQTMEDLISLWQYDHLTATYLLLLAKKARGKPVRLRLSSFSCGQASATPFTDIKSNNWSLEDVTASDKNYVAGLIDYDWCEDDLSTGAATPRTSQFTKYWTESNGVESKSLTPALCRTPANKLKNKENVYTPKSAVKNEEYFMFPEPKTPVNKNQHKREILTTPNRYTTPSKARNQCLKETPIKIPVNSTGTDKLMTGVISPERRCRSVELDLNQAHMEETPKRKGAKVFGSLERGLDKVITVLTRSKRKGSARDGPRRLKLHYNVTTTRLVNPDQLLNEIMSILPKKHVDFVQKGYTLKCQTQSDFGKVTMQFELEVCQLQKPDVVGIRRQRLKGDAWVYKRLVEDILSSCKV
readout_type: % activity (%)
Give a bare numeral; the unit % is implied.

Req: Please report the recorded % activity for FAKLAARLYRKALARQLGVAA [MMI-0300] .
Resp: 16

Req: Please report the recorded % activity for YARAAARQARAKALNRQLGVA (Mammalian) [MMI-0200] .
Resp: 59

Req: Please report the recorded % activity for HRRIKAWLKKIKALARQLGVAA (Mammalian) [MMI-0500] .
Resp: 0

Req: Please report the recorded % activity for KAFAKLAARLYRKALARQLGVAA [MMI-0400] .
Resp: 17
